Test system: Enterobacter cloacae
Experiment: Inhibition of Metallo-beta-lactamase IMP-1 in Enterobacter cloacae clinical isolate assessed as MIC for meropenem antibacterial activity at 64 ug/ml (reference value: 32 ug/ml)
Details: dose 64.0 µg/ml
measurement-name: MIC (µg/mL)
Respond numerically; units are µg/mL and should not be typed.

Enquiry: Fill: MIC (Enterobacter cloacae) for this molecule `O=C(Cc1ccccc1)N[C@@H]1C(=O)N2C(C(=O)O)=C(CSCc3ccccc3)CS[C@H]12`
Return: 8

Enquiry: Fill: MIC (Enterobacter cloacae) for this molecule `O=C(O)c1cccc(C(=O)O)n1`
Return: 1

---
Enquiry: Fill: MIC (Enterobacter cloacae) for this molecule O=C(Cc1ccccc1)N[C@@H]1C(=O)N2C(C(=O)O)=C(CSC(C(=O)O)c3ccccc3)CS[C@H]12 (some centres undefined)
Return: 0.5

Enquiry: Fill: MIC (Enterobacter cloacae) for this molecule `O=C(Cc1ccccc1)N[C@@H]1C(=O)N2C(C(=O)O)=C(CS[C@H](Cc3ccccc3)C(=O)O)CS[C@H]12`
Return: 1

----------
Test system: Escherichia coli
Experiment: Inhibition of Metallo-beta-lactamase NDM-1 in Escherichia coli clinical isolate assessed as fold reduction in meropenem MIC at 128 ug/ml
Settings: dose 128.0 µg/ml
Recorded fold change (FC) values for a group of compounds are listed next.

Please review the following examples before continuing.
Enquiry: Please give the documented fold change (FC) of `O=C(Cc1ccccc1)N[C@@H]1C(=O)N2C(C(=O)O)=C(CSCc3ccccc3)CS[C@H]12`
Return: 2

Enquiry: Please give the documented fold change (FC) of `O=C(Cc1ccccc1)N[C@@H]1C(=O)N2C(C(=O)O)=C(CS[C@@H](Cc3ccccc3)C(=O)O)CS[C@H]12`
Return: 4

Enquiry: Please give the documented fold change (FC) of `O=C(O)CSCC1=C(C(=O)O)N2C(=O)[C@@H](NC(=O)Cc3ccccc3)[C@H]2SC1`
Return: 4

Let us examine a further case.
Enquiry: Please give the documented fold change (FC) of O=C(Cc1ccccc1)N[C@@H]1C(=O)N2C(C(=O)O)=C(CSC(C(=O)O)c3ccccc3)CS[C@H]12 (some centres undefined)
Return: 4

----------
Assay: Binding affinity to Zinc incubated for 2 hrs measured by isothermal titration calorimetric assay
measurement-name: pKd
Formally, pKd is defined as -log10 of the concentration c, with c in mol/L.

Enquiry: Please give the documented pKd of O=C(Cc1ccccc1)N[C@H](C(=O)O)[C@@H]1N=C(C(=O)O)C(CSC(Cc2ccccc2)C(=O)O)CS1 (some centres not stated)
Return: 5.50

Let us examine a further case.
Enquiry: Please give the documented pKd of O=C(Cc1ccccc1)N[C@H](C(=O)O)[C@@H]1N=C(C(=O)O)C(CSC(C(=O)O)c2ccccc2)CS1 (some centres not stated)
Return: 5.01

----------
Test system: Klebsiella pneumoniae
Test: Substrate activity at Klebsiella pneumoniae beta-lactamase IMP-28 assessed as compound hydrolysis by measuring Kcat/Km by Michaelis-Menten analysis
measurement-name: kcat/Km (M⁻¹ s⁻¹)
Respond numerically; units are M⁻¹ s⁻¹ and should not be typed.

Please review the following examples before continuing.
Enquiry: Please give the documented kcat/Km of `O=C(Cc1ccccc1)N[C@@H]1C(=O)N2C(C(=O)O)=C(CS[C@H](Cc3ccccc3)C(=O)O)CS[C@H]12`
Return: 11000

Enquiry: Please give the documented kcat/Km of O=C(Cc1ccccc1)N[C@@H]1C(=O)N2C(C(=O)O)=C(CSC(C(=O)O)c3ccccc3)CS[C@H]12 (some centres not stated)
Return: 3000

Enquiry: Please give the documented kcat/Km of `O=C(Cc1ccccc1)N[C@@H]1C(=O)N2C(C(=O)O)=C(CSCCc3ccccc3)CS[C@H]12`
Return: 73000

Enquiry: Please give the documented kcat/Km of `O=C(Cc1ccccc1)N[C@@H]1C(=O)N2C(C(=O)O)=C(CSCc3ccccc3)CS[C@H]12`
Return: 529000

Enquiry: Please give the documented kcat/Km of `O=C(Cc1ccccc1)N[C@@H]1C(=O)N2C(C(=O)O)=C(CS[C@@H](Cc3ccccc3)C(=O)O)CS[C@H]12`
Return: 234000

---
Enquiry: Please give the documented kcat/Km of `CC1=C(C(=O)O)N2C(=O)[C@@H](NC(=O)Cc3ccccc3)[C@H]2SC1`
Return: 59000

Enquiry: Please give the documented kcat/Km of `O=C(O)CSCC1=C(C(=O)O)N2C(=O)[C@@H](NC(=O)Cc3ccccc3)[C@H]2SC1`
Return: 169000

----------
Test: Inhibition of Enterobacter cloacae IMP-1 using nitrocefin chromogenic substrate measured after 15 to 60 min at 25 degC by microplate reader
The label is T for IC50 below 5 µM and F for IC50 equal to or exceeding 5 µM.

The examples below pair each entry with its known result.
Enquiry: is_below(IC50, 5 µM) for `O=C(Cc1ccccc1)N[C@@H]1C(=O)N2C(C(=O)O)=C(CS[C@@H](Cc3ccccc3)C(=O)O)CS[C@H]12` ?
Return: F

Enquiry: is_below(IC50, 5 µM) for `CC1=C(C(=O)O)N2C(=O)[C@@H](NC(=O)Cc3ccccc3)[C@H]2SC1` ?
Return: F

Enquiry: is_below(IC50, 5 µM) for `O=C(Cc1ccccc1)N[C@@H]1C(=O)N2C(C(=O)O)=C(CSCc3ccccc3)CS[C@H]12` ?
Return: F

Enquiry: is_below(IC50, 5 µM) for `O=C(Cc1ccccc1)N[C@@H]1C(=O)N2C(C(=O)O)=C(CSCCc3ccccc3)CS[C@H]12` ?
Return: T

Enquiry: is_below(IC50, 5 µM) for `O=C(O)CSCC1=C(C(=O)O)N2C(=O)[C@@H](NC(=O)Cc3ccccc3)[C@H]2SC1` ?
Return: F

---
Enquiry: is_below(IC50, 5 µM) for `O=C(Cc1ccccc1)N[C@@H]1C(=O)N2C(C(=O)O)=C(CSCC(=O)c3ccccc3)CS[C@H]12` ?
Return: T

Enquiry: is_below(IC50, 5 µM) for `O=C(Cc1ccccc1)N[C@@H]1C(=O)N2C(C(=O)O)=C(CS[C@H](Cc3ccccc3)C(=O)O)CS[C@H]12` ?
Return: T

Enquiry: is_below(IC50, 5 µM) for O=C(Cc1ccccc1)N[C@@H]1C(=O)N2C(C(=O)O)=C(CSC(C(=O)O)c3ccccc3)CS[C@H]12 (stereo partly drawn) ?
Return: T

----------
Test system: Escherichia coli
Assay: Inhibition of Metallo-beta-lactamase VIM-2 in Escherichia coli clinical isolate assessed as MIC for meropenem antibacterial activity at 64 ug/ml (reference value: 4 ug/ml)
Conditions: dose 64.0 µg/ml
Recorded MIC values for a group of compounds are listed next.
Respond numerically; units are µg/mL and should not be typed.

Please review the following examples before continuing.
Enquiry: Please give the documented MIC of `O=C(O)CSCC1=C(C(=O)O)N2C(=O)[C@@H](NC(=O)Cc3ccccc3)[C@H]2SC1`
Return: 2

Enquiry: Please give the documented MIC of `CC1=C(C(=O)O)N2C(=O)[C@@H](NC(=O)Cc3ccccc3)[C@H]2SC1`
Return: 2

---
Enquiry: Please give the documented MIC of `O=C(Cc1ccccc1)N[C@@H]1C(=O)N2C(C(=O)O)=C(CSCc3ccccc3)CS[C@H]12`
Return: 2

----------
Recorded MIC values for a group of compounds are listed next.
System: Klebsiella pneumoniae
Assay: Inhibition of Metallo-beta-lactamase IMP-28 in Klebsiella pneumoniae clinical isolate assessed as MIC for meropenem antibacterial activity at 128 ug/ml (reference value: 4 ug/ml)
Settings: dose 128.0 µg/ml
Respond numerically; units are µg/mL and should not be typed.

Enquiry: Fill: MIC (Klebsiella pneumoniae) for this compound `O=C(Cc1ccccc1)N[C@@H]1C(=O)N2C(C(=O)O)=C(CS[C@@H](Cc3ccccc3)C(=O)O)CS[C@H]12`
Return: 0.25

Enquiry: Fill: MIC (Klebsiella pneumoniae) for this compound `O=C(Cc1ccccc1)N[C@@H]1C(=O)N2C(C(=O)O)=C(CSCCc3ccccc3)CS[C@H]12`
Return: 0.25

Let us examine a further case.
Enquiry: Fill: MIC (Klebsiella pneumoniae) for this compound `O=C(Cc1ccccc1)N[C@@H]1C(=O)N2C(C(=O)O)=C(CSCC(=O)c3ccccc3)CS[C@H]12`
Return: 0.25

----------
Test system: Klebsiella pneumoniae
Experiment: Inhibition of Metallo-beta-lactamase IMP-28 in Klebsiella pneumoniae clinical isolate assessed as fold reduction in meropenem MIC at 128 ug/ml
Details: dose 128.0 µg/ml
Recorded fold change (FC) values for a group of compounds are listed next.
Returns: the value as a bare number; no unit string appended.

Enquiry: Please give the documented fold change (FC) of `CC1=C(C(=O)O)N2C(=O)[C@@H](NC(=O)Cc3ccccc3)[C@H]2SC1`
Return: 8

Enquiry: Please give the documented fold change (FC) of `O=C(Cc1ccccc1)N[C@@H]1C(=O)N2C(C(=O)O)=C(CSCCc3ccccc3)CS[C@H]12`
Return: 16

Enquiry: Please give the documented fold change (FC) of `O=C(O)CSCC1=C(C(=O)O)N2C(=O)[C@@H](NC(=O)Cc3ccccc3)[C@H]2SC1`
Return: 16

Enquiry: Please give the documented fold change (FC) of `O=C(Cc1ccccc1)N[C@@H]1C(=O)N2C(C(=O)O)=C(CS[C@@H](Cc3ccccc3)C(=O)O)CS[C@H]12`
Return: 16

Enquiry: Please give the documented fold change (FC) of `O=C(Cc1ccccc1)N[C@@H]1C(=O)N2C(C(=O)O)=C(CSCc3ccccc3)CS[C@H]12`
Return: 8

Let us examine a further case.
Enquiry: Please give the documented fold change (FC) of `O=C(Cc1ccccc1)N[C@@H]1C(=O)N2C(C(=O)O)=C(CSCC(=O)c3ccccc3)CS[C@H]12`
Return: 16
